Consider the following molecules and their measured TGI readings.
# Test system: SK-OV-3 ovarian
# ASSAY_NOTES: NCI tumour cell line growth inhibition, 48 h

MOLECULE: CN1CCCC(C(=O)OCC(=O)C2(O)CCC3C4CCC5=CC(=O)CCC5(C)C4C(O)CC32C)C1 (centres undefined)
SUBJECT_OF_TEST: SK-OV-3 ovarian
TGI: 45.6 µM
--
MOLECULE: COc1ccc(/C(C#N)=C(/N)SCc2ccccc2Cl)cc1
SUBJECT_OF_TEST: SK-OV-3 ovarian
TGI: 86.9 µM
--
MOLECULE: O=c1[nH]c2c(c3ccccc13)CCc1ccccc1-2
SUBJECT_OF_TEST: SK-OV-3 ovarian
TGI: > 100 µM
--
MOLECULE: Cn1nc(C(=O)N2CC(CCl)c3c2cc([N+](=O)[O-])c2ccccc32)cc1NC(=O)Nc1cc(C(=O)N2CC(CCl)c3c2cc([N+](=O)[O-])c2ccccc32)nn1C (centres undefined)
SUBJECT_OF_TEST: SK-OV-3 ovarian
TGI: > 100 µM
--
MOLECULE: Cc1ccc(Nc2nc(C)c(C(/C=C/c3ccc4c(c3)OCO4)=N/Nc3ccc([N+](=O)[O-])cc3[N+](=O)[O-])s2)c([N+](=O)[O-])c1
SUBJECT_OF_TEST: SK-OV-3 ovarian
TGI: > 100 µM
--
MOLECULE: COc1cc(NC(=O)c2cc(O)c(C/C=C(\C)CCC=C(C)C)c(O)c2)cc2c1O[C@]1(C)CC[C@@H](O)C(C)(C)[C@H]1C2
SUBJECT_OF_TEST: SK-OV-3 ovarian
TGI: 12.9 µM
--
MOLECULE: COC(=O)c1nc(N)nc(C(=O)OC)c1C(=O)c1ccccc1
SUBJECT_OF_TEST: SK-OV-3 ovarian
TGI: > 100 µM
--
MOLECULE: CC(C)(CN)SCc1ccccc1
SUBJECT_OF_TEST: SK-OV-3 ovarian
TGI: > 100 µM
--
MOLECULE: CC1=NN(c2ccccc2)C(=O)C1N=Nc1ccc(S(N)(=O)=O)cc1 (centres undefined)
SUBJECT_OF_TEST: SK-OV-3 ovarian
TGI: > 100 µM

----------
# System: SNB-78 CNS
# ASSAY_NOTES: NCI tumour cell line growth inhibition, 48 h
READOUT_LABEL: TGI

COMPOUND: O=C(O)CN=c1c2ccccc2n(O)c2ccccc12
ASSAY_RESULT: > 100 µM
//
COMPOUND: COc1ccc(/C(C#N)=C(/N)SCc2ccccc2Cl)cc1
ASSAY_RESULT: 64.2 µM
//
COMPOUND: O=C1c2ccccc2C(=O)c2c(O)c(NCCNCCO)cc(O)c21
ASSAY_RESULT: 18.7 µM
//
COMPOUND: COC(=O)C1C(/C=C/c2ccoc2)ON2CCC[C@@H]12 (stereo partly drawn)
ASSAY_RESULT: > 100 µM
//
COMPOUND: CN(CCO)/N=N/c1nc[nH]c1C(N)=O
ASSAY_RESULT: > 100 µM
//
COMPOUND: CCCCCCCCCCCCCCCCCc1nnc(N)o1
ASSAY_RESULT: > 100 µM
//
COMPOUND: Cc1ccc(Nc2nc(C)c(C(/C=C/c3ccc4c(c3)OCO4)=N/Nc3ccc([N+](=O)[O-])cc3[N+](=O)[O-])s2)c([N+](=O)[O-])c1
ASSAY_RESULT: > 100 µM
//
COMPOUND: CCOC(=O)C1Oc2ccc([N+](=O)[O-])cc2C1(C)O (stereo not drawn)
ASSAY_RESULT: > 100 µM
//
COMPOUND: O=C1NN=C(c2ccc([N+](=O)[O-])cc2)C1n1nc(-c2ccccc2)c2ccccc2c1=O (stereo not drawn)
ASSAY_RESULT: > 100 µM
//
COMPOUND: Cc1cc(Cl)ccc1NC(=O)C(=O)Cc1occc(=O)c1O
ASSAY_RESULT: > 100 µM
//
COMPOUND: COc1ccc(/C=N\O[Si](C)(C)C(C)(C)C)cc1O[Si](C)(C)C(C)(C)C
ASSAY_RESULT: 36.1 µM
//
COMPOUND: CCN(CC)CCC(=O)O[C@H]1CC[C@H](CC(C)[C@H]2CC(=O)C(C)C=C(C)[C@H](OC(=O)CCN(CC)CC)C(OC)C(=O)[C@@H](C)CC(C)/C=C/C=C/C=C(C)C(OC)CC3CC[C@H](C)[C@](O)(O3)C(=O)C(=O)N3CCCCC3C(=O)O2)CC1OC (stereo partly drawn)
ASSAY_RESULT: 1.7 µM
//
COMPOUND: COc1cc2nncc(SCc3ccc(Cl)c(Cl)c3)c2cc1OC
ASSAY_RESULT: > 100 µM

----------
# Test system: HOP-92 NSCLC
# ASSAY_NOTES: NCI tumour cell line growth inhibition, 48 h

MOLECULE: CCN(CC)CCC(=O)O[C@H]1CC[C@H](CC(C)[C@H]2CC(=O)C(C)C=C(C)[C@H](OC(=O)CCN(CC)CC)C(OC)C(=O)[C@@H](C)CC(C)/C=C/C=C/C=C(C)C(OC)CC3CC[C@H](C)[C@](O)(O3)C(=O)C(=O)N3CCCCC3C(=O)O2)CC1OC (some centres undefined)
GI50: 25 nM
--
MOLECULE: CCCCN(CCCC)CCC(O)c1cc2ccc(C(F)(F)F)cc2c2cc(C(F)(F)F)ccc12 (centres undefined)
GI50: 1490 nM
--
MOLECULE: CCC(=O)c1c(C(F)(F)F)n([O-])c2ccccc2[n+]1=O
GI50: 1500 nM
--
MOLECULE: COc1cc(NC(=O)c2cc(O)c(C/C=C(\C)CCC=C(C)C)c(O)c2)cc2c1O[C@]1(C)CC[C@@H](O)C(C)(C)[C@H]1C2
GI50: 627 nM

----------
# Test system: NCI/ADR-RES ovarian
# ASSAY_NOTES: NCI tumour cell line growth inhibition, 48 h
Where a SMILES comes first, the peptide text is derived from it.
READOUT_LABEL: TGI (µM)

COMPOUND: CNc1ncnc2c1cnn2Cc1cn(CCCCO)nn1
READOUT_LABEL: TGI
UNITS_TEXT: µM
VALUE_RELATION_SIGN: >
ASSAY_RESULT: 100

COMPOUND: C=C1C(=O)O[C@H]2[C@H]1CC/C(CNC(=O)/C=C/c1ccc(Cl)cc1Cl)=C\CC[C@@]1(C)O[C@@H]21
READOUT_LABEL: TGI
UNITS_TEXT: µM
VALUE_RELATION_SIGN: =
ASSAY_RESULT: 12.8

COMPOUND: NCCCCCNOCCCN
READOUT_LABEL: TGI
UNITS_TEXT: µM
VALUE_RELATION_SIGN: >
ASSAY_RESULT: 100

COMPOUND: CC/C=C/C(/C=C/C[C@]1(CC)C[C@H](CC)[C@H](CC(=O)O)OO1)CC (stereo not given in full)
READOUT_LABEL: TGI
UNITS_TEXT: µM
VALUE_RELATION_SIGN: =
ASSAY_RESULT: 4.79

COMPOUND: Cc1cn(Cc2ccccc2CCl)c(=O)n(Cc2ccccc2CCl)c1=O
READOUT_LABEL: TGI
UNITS_TEXT: µM
VALUE_RELATION_SIGN: =
ASSAY_RESULT: 6.36

COMPOUND: COc1cc2nncc(SCc3ccc(Cl)c(Cl)c3)c2cc1OC
READOUT_LABEL: TGI
UNITS_TEXT: µM
VALUE_RELATION_SIGN: >
ASSAY_RESULT: 100

COMPOUND: CCc1n[nH]c(=S)n1/N=C\c1ccc(-c2ccccc2[N+](=O)[O-])o1
READOUT_LABEL: TGI
UNITS_TEXT: µM
VALUE_RELATION_SIGN: =
ASSAY_RESULT: 81.5

COMPOUND: CC(=O)NC(CO)C(=O)NC(Cc1ccc(O)cc1)C(=O)NCC(N)=O (stereo not drawn) (Ac-Ser-Tyr-Gly-NH2; configuration not given here)
READOUT_LABEL: TGI
UNITS_TEXT: µM
VALUE_RELATION_SIGN: >
ASSAY_RESULT: 100

COMPOUND: CC(=O)NC1C(OCc2ccccc2)OC(CO)C(O)C1OCC(=O)N1CCCC1C(=O)NC(CCC(=O)NCCCCCNc1c2ccccc2nc2cccc([N+](=O)[O-])c12)C(N)=O (stereo not given)
READOUT_LABEL: TGI
UNITS_TEXT: µM
VALUE_RELATION_SIGN: =
ASSAY_RESULT: 1.09

COMPOUND: COC1C(OC(N)=O)C(O)C(Oc2ccc3c(O)c(NC(=O)c4ccc(O)c(CC=C(C)C)c4)c(=O)oc3c2C)OC1(C)C (stereo not given)
READOUT_LABEL: TGI
UNITS_TEXT: µM
VALUE_RELATION_SIGN: >
ASSAY_RESULT: 100

COMPOUND: C=CC[C@H]1[C@H](O[Si](C)(C)C(C)(C)C)C=CC(=O)[C@@H]1CC(=O)OCC
READOUT_LABEL: TGI
UNITS_TEXT: µM
VALUE_RELATION_SIGN: =
ASSAY_RESULT: 24.4

COMPOUND: Oc1ccccc1-n1nc2ccc3nonc3c2n1
READOUT_LABEL: TGI
UNITS_TEXT: µM
VALUE_RELATION_SIGN: >
ASSAY_RESULT: 100

COMPOUND: O=CN1N=C(c2ccc(Nc3ccnc4cc(Cl)ccc34)cc2)CC1c1ccc(Cl)cc1 (stereo not given)
READOUT_LABEL: TGI
UNITS_TEXT: µM
VALUE_RELATION_SIGN: >
ASSAY_RESULT: 100

COMPOUND: CN(C)CC1=Nc2cccc3cccc(c23)N1
READOUT_LABEL: TGI
UNITS_TEXT: µM
VALUE_RELATION_SIGN: >
ASSAY_RESULT: 100

COMPOUND: O=C1NC(SCc2ccc(F)cc2)=N/C1=C/c1cccc(OCc2ccc(Cl)cc2)c1
READOUT_LABEL: TGI
UNITS_TEXT: µM
VALUE_RELATION_SIGN: >
ASSAY_RESULT: 100

COMPOUND: O=C(Nc1ccc(S(=O)(=O)Nc2ncccn2)cc1)c1c2ccccc2nc2ccccc12
READOUT_LABEL: TGI
UNITS_TEXT: µM
VALUE_RELATION_SIGN: >
ASSAY_RESULT: 100

COMPOUND: C/C(=N\NC(=S)Nc1ccc(Cl)cc1)c1nc2ncccc2[nH]1
READOUT_LABEL: TGI
UNITS_TEXT: µM
VALUE_RELATION_SIGN: =
ASSAY_RESULT: 53.4

COMPOUND: CCC(=O)c1c(C(F)(F)F)n([O-])c2ccccc2[n+]1=O
READOUT_LABEL: TGI
UNITS_TEXT: µM
VALUE_RELATION_SIGN: =
ASSAY_RESULT: 13.3

COMPOUND: CC(C)=CCc1cc(C2COc3cc4c(c(O)c3C2=O)C=CC(C)(C)O4)c(O)cc1O (stereo not given)
READOUT_LABEL: TGI
UNITS_TEXT: µM
VALUE_RELATION_SIGN: =
ASSAY_RESULT: 79.4

COMPOUND: CCOC(=O)/C(=N/Nc1ccc(Cl)cc1)N1C(=S)C=C(C)NN(C)C1=S
READOUT_LABEL: TGI
UNITS_TEXT: µM
VALUE_RELATION_SIGN: >
ASSAY_RESULT: 100
